Biological target: U2AF65^RRM123 (residues 147–475) (human, UniProt P26368 147-475)
Sequence (P26368 147-475, one chain of several): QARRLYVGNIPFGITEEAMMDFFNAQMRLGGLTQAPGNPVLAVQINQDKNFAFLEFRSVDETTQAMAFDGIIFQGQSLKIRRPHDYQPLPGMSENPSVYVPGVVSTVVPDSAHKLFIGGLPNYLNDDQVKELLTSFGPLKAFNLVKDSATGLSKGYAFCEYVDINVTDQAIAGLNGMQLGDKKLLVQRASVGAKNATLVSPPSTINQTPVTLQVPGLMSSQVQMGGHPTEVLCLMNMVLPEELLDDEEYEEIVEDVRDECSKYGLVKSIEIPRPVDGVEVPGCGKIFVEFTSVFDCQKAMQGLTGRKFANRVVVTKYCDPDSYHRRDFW
Experiment: native gel or EMSA

{"columns": ["binder", "binding result"],
 "data": [
  ["SF1-Δα2, SF1^2-320 with helix α2 deleted (Δ96–128) (domain or fragment, human) ATGANATPLDFPSKKRKRSRWNQDTMEQKTVIPGMPTVIPPGLTREQERAYIVQLQIEDLTRKLRTGDLGIPPNPEDRSPSPEPIYNSEGKRLNGTYKPPATRVSDKVMIPQDEYPEINFVGLLIGPRGNTLKNIEKECNAKIMIRGKGSVKEGKVGRKDGQMLPGEDEPLHALVTANTMENVKKAVEQIRNILKQGIETPEDQNDLRKMQLRELARLNGTLREDDNRILRPWQSSETRSITNTTVCTKCGGAGHIASDCKFQRPGDPQSAQDKARMDKEYLSLMAEL", "binds"],
  ["His6-tagged SF1^2-320 (domain or fragment, human, UniProt Q15637 2-320, looked up) ATGANATPLDFPSKKRKRSRWNQDTMEQKTVIPGMPTVIPPGLTREQERAYIVQLQIEDLTRKLRTGDLGIPPNPEDRSPSPEPIYNSEGKRLNTREFRTRKKLEEERHNLITEMVALNPDFKPPADYKPPATRVSDKVMIPQDEYPEINFVGLLIGPRGNTLKNIEKECNAKIMIRGKGSVKEGKVGRKDGQMLPGEDEPLHALVTANTMENVKKAVEQIRNILKQGIETPEDQNDLRKMQLRELARLNGTLREDDNRILRPWQSSETRSITNTTVCTKCGGAGHIASDCKFQRPGDPQSAQDKARMDKEYLSLMAEL", "binds"],
  ["SF1^2-320 with the α1–α2 linker deleted (Δ75–90) (domain or fragment, human) ATGANATPLDFPSKKRKRSRWNQDTMEQKTVIPGMPTVIPPGLTREQERAYIVQLQIEDLTRKLRTGDLGIPPGTGKRLNTREFRTRKKLEEERHNLITEMVALNPDFKPPADYKPPATRVSDKVMIPQDEYPEINFVGLLIGPRGNTLKNIEKECNAKIMIRGKGSVKEGKVGRKDGQMLPGEDEPLHALVTANTMENVKKAVEQIRNILKQGIETPEDQNDLRKMQLRELARLNGTLREDDNRILRPWQSSETRSITNTTVCTKCGGAGHIASDCKFQRPGDPQSAQDKARMDKEYLSLMAEL", "binds"]
]}
